- PROTOCOL_TEXT: folding stability dG unfold (combined trypsin and chymotrypsin); higher = more stable
Entry flag: criterion met if folding stability dG unfold reaches 3 kcal/mol; criterion not met if it does not.

residue_sequence="SAGGSAMKIEEIEKVELKKNENGELTAKIIIKDKKTNKYIEIEITVKPGMTLEEIKKLAEELLKKLSAGGSA [r15_181_TrROS_Hall]" discrete_label="criterion not met"
residue_sequence="SAGGSAGGNKIWIPITITFMVPVRKDPDGKPKLSPEDPDRWKPVEFEIPIEIDPDPDNGKIKIWSAGGSAGG [r6_537_TrROS]" discrete_label="criterion not met"
residue_sequence="SAGKKYVVVIDIEVKMPGKTKPRPIVIPVPEGETIKEQLSELPGLDNVKIKIQVIPPDQDPDFAGQPISAGG [r19_339_TrROS]" discrete_label="criterion not met"
residue_sequence="SAGGSAGGSAGPLVLVKELKSSRPVFDKNGKLIGTKTEVLVEAELLAPPANPDDPRYKETSAGGSAGGSAGG [r11_131_TrMRF]" discrete_label="criterion not met"
residue_sequence="SAGGSAGGSAGGGPDWVLRRRTLEESSPVSTTPNPTGRRRTGYRTLVREEEVVLPPDLESAGGSAGGSAGGS [r10_524_JUSTAS]" discrete_label="criterion not met"
residue_sequence="SAGGSEDRYLVHVLVRFPDELRELYLEARSPEEVERSVRRAIEELYPERLEDVEVVVFARPVSEPLSAGGSA [r2_111_TrMRF]" discrete_label="criterion not met"
residue_sequence="SAKIVVKLPEKPKVAVIEFPPGMTKEEILKALEEVPGLSEEEREALKKKIEELEALAKNPELLKKLEEESAG [r14_732_TrROS_Hall]" discrete_label="criterion not met"
residue_sequence="SAGYEWVRELAKKKGFKDIKIEDVQPQRPPDGMEYMHVRIEVQHPGKKREVDIWMRPDNIEEALEQALKSAG [r5_549_TrROS]" discrete_label="criterion not met"
residue_sequence="SAGGSAGGSAGGKWRPITFPFPDGWYLQIYMNPDGDVKAEIYNPDGKPVEKTFPPGEPIFSAGGSAGGSAGG [r7_215_TrROS]" discrete_label="criterion not met"
residue_sequence="SAGGSAGGSAGMTSTVTEVRPGSDSWTVTVTYSENSSTKTQTLTVPAGPTVRSGLPSVVSSAGGSAGGSAGG [r11_921_JUSTAS]" discrete_label="criterion not met"
residue_sequence="SMLVLRLPDNRLAVLEYDPETKRLRVLVVDPESGRLTVAEIHPETGEITVDEYTLLPNGEPLPHRFELPLSA [r9_1073_TrMRF]" discrete_label="criterion not met"
residue_sequence="SAGGSAGGSAGGKPVKLEISFDKETNTITIKAVDEENKTVTETTIKVTFLPPPPPPPPKSAGGSAGGSAGGS [r10_331_TrROS_Hall]" discrete_label="criterion not met"
residue_sequence="SAGPWWMITIRLPGNKTITIMFPGVKVEVDPKNNTIRIRNPGLGHSIEFKFDPPGKIKDVDIEPIPPNASAG [r5_342_TrROS]" discrete_label="criterion met"
residue_sequence="SGMTIKILEVDFNPLGEEDEKATITLKAEIGGEEVELKIEVYRRPDGSAIAKITLILPGSGEPFEITADISA [r9_241_TrMRF]" discrete_label="criterion met"
residue_sequence="SAGGSAWIWITYQFPPGGTLEQAKEQIVNYLQRLFGWKIEIPDIEVEREGNNWTVTFPIKIEPLPGSAGGSA [r15_105_TrROS]" discrete_label="criterion met"
residue_sequence="SAGGSAGGSAGGPEVTLRLRLEVEVRVVVLKDGKLEEKTFRFELEVEVRFEPGMSLEELSAGGSAGGSAGGS [r10_633_TrROS_Hall]" discrete_label="criterion met"
residue_sequence="SAGGSAEIELPEGAKVEVTEVEVDGELYLRMKVVDEETGEVFVMEMRMRPDGEMEMEVKKIPKEELSAGGSA [r15_986_TrROS_Hall]" discrete_label="criterion not met"
residue_sequence="SAGGSAGGSMPTLRVKIEVTNPDGEKLELTITVPRDMTLEELKALAEELAKAGYEVRIVEVEPSAGGSAGGS [r12_804_TrROS_Hall]" discrete_label="criterion met"
residue_sequence="SAGGSAGGSAGGSKIEVYKEPNKITIVIHPGNKPLVFTATEPIPIETLIKKAREAFPDASAGGSAGGSAGGS [r4_191_TrMRF]" discrete_label="criterion not met"
residue_sequence="SAGGSAGGSAGSSSFIRKGKDGSRITATPSPSYITISTFPLKGGGIVPSTKTTTLPPSLLSAGGSAGGSAGG [r11_88_JUSTAS]" discrete_label="criterion not met"
residue_sequence="SAGMPLSVEEAIALLRKEIEAIPVPPSVTEIEFEITIPADGRPVKITVKVNEGKLEITVTVGDKPIKIGSAG [r14_199_JUSTAS]" discrete_label="criterion not met"
residue_sequence="SAGGAPVPVSVTVEIFKRPDGYIIKVNIPSGETKTFSSLEELEKFLKENPSLKITKRTTVPIEKYYESSAGG [r13_730_JUSTAS]" discrete_label="criterion not met"
residue_sequence="SAGGSAGGSNWVEIDIPHDDGRDIKITMWPDGYMQIEYPNGKPVYEIPVPPNMSIDEIAERILSAGGSAGGS [r12_990_TrROS]" discrete_label="criterion not met"
residue_sequence="SAGGSAGGSAGGSMYIKIPGEPGDLREVVIEGKKVKVTPDANNPDKVTYTLPDGTKIALSAGGSAGGSAGGS [r4_488_JUSTAS]" discrete_label="criterion not met"
residue_sequence="SAGGSAGSHNQSPDGITLDAPLSSEEEIEALVAEVKAAAPPTYTVTVERTRSPSTLSVDVIVTAAPSAGGSA [r15_80_JUSTAS]" discrete_label="criterion not met"
residue_sequence="SAGGSAGGDIEVRPVGVVPTPDGRLVRVEEVTFPETGRTLLVAVDLEPGRVYVFDPETGEWREESAGGSAGG [r6_114_TrMRF]" discrete_label="criterion not met"
